FYI, the data here is from patent US20220127297A1.

Known MIC50 of a selection of compounds
# Tested on: E. coli ATCC25922 strain
# TEST NAME: MIC 50, broth micro-dilution, wild-type Escherichia coli
# Assay type: cell-based
# CONDITION PARAMETERS: Escherichia coli, ATCC25922, 18 h, MH2, 18 h
ENDPOINT NAME: MIC50 (µM)

1. N=C(NC[C@@H]1CNCCO1)NC1[C@@H](O)C(OC2[C@@H](F)[C@H](O[C@H]3OC(CN)[C@@H](O)CC3N)C(N)C[C@H]2NC(=O)[C@@H](O)CCN)O[C@H](CO)[C@H]1O (stereo partly shown) [ABX5040] = 0.5
2. C[C@@H](N)CCNC(=N)NC1[C@@H](O)C(OC2[C@@H](F)[C@H](O[C@H]3OC(CN)[C@@H](O)CC3N)C(N)C[C@H]2NC(=O)[C@@H](O)CCN)O[C@H](CO)[C@H]1O (stereo partly drawn) [ABX5047, Tobra-AHB-F-Gua (R) 3-amino-butyl] = 0.25
3. N=C(NCc1cnc[nH]1)NC1[C@@H](O)C(OC2[C@@H](F)[C@H](O[C@H]3OC(CN)[C@@H](O)CC3N)C(N)C[C@H]2NC(=O)[C@@H](O)CCN)O[C@H](CO)[C@H]1O (stereo partly shown) [ABX5050, Tobra-AHB-F-Gua imidazol-5-yl methyl] = 1
4. N=C(NCCCN)NC1[C@@H](O)C(OC2[C@@H](F)[C@H](O[C@H]3OC(CN)[C@@H](O)CC3N)C(N)C[C@H]2NC(=O)[C@@H](O)CCN)O[C@H](CO)[C@H]1O (stereo partly shown) [ABX5030, Tobra-AHB-F-Gua-3-amino-propyl] = 0.25
